- testSystem: UniProt:P05771
- Sequence (P05771 whole entry): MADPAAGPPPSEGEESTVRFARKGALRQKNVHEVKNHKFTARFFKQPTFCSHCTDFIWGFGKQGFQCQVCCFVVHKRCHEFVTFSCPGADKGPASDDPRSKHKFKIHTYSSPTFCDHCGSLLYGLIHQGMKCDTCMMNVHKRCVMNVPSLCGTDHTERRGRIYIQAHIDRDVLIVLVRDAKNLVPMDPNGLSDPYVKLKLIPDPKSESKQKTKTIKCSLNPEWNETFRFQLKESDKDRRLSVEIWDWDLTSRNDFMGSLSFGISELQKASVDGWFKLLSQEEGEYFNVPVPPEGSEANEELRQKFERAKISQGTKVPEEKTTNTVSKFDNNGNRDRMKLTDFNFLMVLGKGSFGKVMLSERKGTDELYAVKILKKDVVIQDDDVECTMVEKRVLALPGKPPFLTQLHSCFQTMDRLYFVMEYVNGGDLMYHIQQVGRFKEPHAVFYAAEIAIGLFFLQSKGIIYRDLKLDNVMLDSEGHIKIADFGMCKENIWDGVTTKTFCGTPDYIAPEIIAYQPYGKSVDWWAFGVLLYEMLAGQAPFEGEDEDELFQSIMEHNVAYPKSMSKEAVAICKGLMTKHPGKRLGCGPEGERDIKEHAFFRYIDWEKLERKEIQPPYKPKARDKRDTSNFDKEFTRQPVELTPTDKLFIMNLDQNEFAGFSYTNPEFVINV
- experimentNotes: Inhibition of human PKCbeta2 expressed in baculovirus infected Sf9 insect cells in presence of [p32-gamma]-ATP measured after 10 mins by scintillation counter analysis

compound | IC50 (nM)
CN(C)CCCn1cc(C2=C(c3c[nH]c4ccccc34)C(=O)NC2=O)c2ccccc21 [GF-109203] | 16

* * *

- testSystem: Protein kinase C alpha type (Bos taurus, UniProt P04409)
pIC50: −log10 of the molar value.

compound | testSystem | pIC50
CN(C)CCCn1cc(C2=C(c3c[nH]c4ccccc34)C(=O)NC2=O)c2ccccc21 [GF-109203] | Protein kinase C alpha type (Bos taurus, UniProt P04409) | 7.70

* * *

Below is a list of entries, each paired with its recorded IC50 value.
- testSystem: cAMP-dependent protein kinase (PKA) (Homo sapiens, UniProt P22694+P17612+P22612)
- experimentNotes: Inhibition of PKA (unknown origin)
- Format: protein assay
readoutKind: IC50 (nM)

compound | dataValue
CN1CCCC1CCCn1cc(C2=C(c3c[nH]c4ccccc34)C(=O)NC2=O)c2ccccc21 (stereo not given) | 2000
CN(C)CCCn1cc(C2=C(c3cn(C)c4ccccc34)C(=O)NC2=O)c2ccccc21 | 3500
CC(CN(C)C)Cn1cc(C2=C(c3c[nH]c4ccccc34)C(=O)NC2=O)c2ccccc21 (stereo not given) | 6600
COC(=O)CCn1cc(C2=C(c3c[nH]c4ccccc34)C(=O)NC2=O)c2ccccc21 | 1500
CN(C)CCCn1cc(C2=C(c3c[nH]c4ccccc34)C(=O)NC2=O)c2ccccc21 | 2000
